System Tested: T1, human CD33, full length, on cells (human, UniProt P20138 18-364)
T1 construct: NIH-3T3 cells stably overexpressing full-length human CD33, or AML lines U937 and Set2 with endogenous CD33; the cell line is named under assay; also called 3T3-huCD33; 3T3-CD33
T1 sequence (P20138 18-364): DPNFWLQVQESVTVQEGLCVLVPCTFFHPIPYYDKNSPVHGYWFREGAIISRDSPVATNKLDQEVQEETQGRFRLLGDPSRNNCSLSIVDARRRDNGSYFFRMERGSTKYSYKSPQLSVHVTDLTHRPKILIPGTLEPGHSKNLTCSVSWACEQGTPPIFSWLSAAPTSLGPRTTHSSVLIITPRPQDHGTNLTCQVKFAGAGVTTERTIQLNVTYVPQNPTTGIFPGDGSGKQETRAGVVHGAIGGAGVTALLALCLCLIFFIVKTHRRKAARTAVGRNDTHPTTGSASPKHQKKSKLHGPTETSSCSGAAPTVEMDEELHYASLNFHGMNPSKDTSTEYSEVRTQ
Assay Details: flow cytometry, hybridoma supernatant, 3T3-huCD33 cells
Endpoint: MFI

Here is how some binders turned out for MFI.
Binder	Observed Measurement
3-P14 (hybridoma antibody) (antibody, V domains shown, AlivaMab mouse hybridoma antibody; also called 3-P14-A) VH: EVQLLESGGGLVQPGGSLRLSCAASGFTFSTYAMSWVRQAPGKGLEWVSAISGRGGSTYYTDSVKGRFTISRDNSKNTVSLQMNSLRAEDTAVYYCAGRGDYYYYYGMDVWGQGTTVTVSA VL: DIVMTQSPLSSPVTLGQPASFSCRSSQSLVYSDGNTYLSWLQQRPGQPPRLLIYKISNRFSGVPDRFSGSGAGTDFTLKISRVEAEDVGVYYCMQSTQFPHTFGQGTKLEIK	3.06e+06 MFI
4-B2 (hybridoma antibody) (antibody, V domains shown, AlivaMab mouse hybridoma antibody; also called 4-B2-A) VH: EVHLLESGGGLVQPGGSLRLSCAASGFIFSSNAMSWVRQAPGKGLEWVSAISGYGGNTYYADSVKGRFTISRDNSKNTLYLQMNSLRAEDTAVYYCAKWGTYIVGATGDYWGQGTLVTVSS VL: QSALTQPPSASGSPGQSVTISCTGTSNDVGGYNYVSWYQQHPGKAPKLLIYEVSKRPSGVPDRFSGSQSGNTASLTVSGLQAEDEADYYCSSYAGSNNWVFGGGTKLTVL	2.82e+06 MFI

Proceed to the following item.
IN: Look up MFI for this binder: 1-H19 (antibody, V domains shown, AlivaMab mouse hybridoma antibody; also called 1-H19-A) VH: QVQLQESGPGLVKPSETLSLTCTVSGGSISTYYWSWIRQPAGKGLEWIGRIYTSGNTNYNPSLKSRVTMSVDTSKNQLSLKLRSVTAADTAVYYCARDGDNRNSDAFDIWGQGTMVTVSS VL: QSVLTQPPSVSGAPGQRVTISCTGSSSNIGAGYDVHWYQQLPGTAPKLLIYGNSNRPSGVPDRFSGSKSGTSASLAITGLQAEDEADYYCQSYDRSLSGWVFGGGTKLTVL
OUT: 1.75e+06 MFI
